- system: Protein kinase C alpha type (Homo sapiens);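 note: each value is the mean percent inhibition of PKC-alpha kinase activity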
- assay-setup: at 0.1 µM
// reported inhibition per item
parameter-measured: inhibition

smi=COc1cc2c(cc1Nc1nc(Nc3cccc(F)c3C(N)=O)c3cc[nH]c3n1)N(C(=O)CN1CCN(C(C)C)CC1)CC2 parameter_measured=inhibition value_observed=3.39%
smi=O=C(Nc1n[nH]c2nnc(-c3cccnc3)cc12)C1CC1 parameter_measured=inhibition value_observed=-0.19%
smi=COc1cc(Nc2ncc(-c3ccccc3)o2)cc(OC)c1 parameter_measured=inhibition value_observed=1.19%
smi=COc1c(C(N)=O)cc(-c2ccc(Cl)cc2)cc1-c1ccc(S(N)(=O)=O)cc1 parameter_measured=inhibition value_observed=0.59%
smi=NC(=O)c1ccc2c(-c3ccnc(NCCCO)n3)c(-c3ccc(F)cc3)nn2c1 parameter_measured=inhibition value_observed=1.39%
smi=FC(F)(F)CNc1nccc(-c2cnn3ncccc23)n1 parameter_measured=inhibition value_observed=1.22%
smi=CNC(=O)c1sc(-n2cnc3cc(OC)c(OC)cc32)cc1OCc1ccccc1C(F)(F)F parameter_measured=inhibition value_observed=0.09%
smi=NS(=O)(=O)c1ccc(N/N=C2\C(=O)Nc3ccc(C(=O)NCc4ccncc4)cc32)cc1 parameter_measured=inhibition value_observed=0.49%
smi=CCS(=O)(=O)c1ccc(OC)c(Nc2ncc(-c3cccc(C(C)=O)c3)o2)c1 parameter_measured=inhibition value_observed=0.74%
smi=CS(=O)(=O)Nc1ccc(-c2cc(-c3ccccc3)cc(C(N)=O)c2N)cc1 parameter_measured=inhibition value_observed=0.46%
smi=COc1ccccc1-c1cc(/C=C2\C(=O)Nc3ncc(Br)cc32)cc(Br)c1O parameter_measured=inhibition value_observed=0.82%
smi=COc1cc(N2CCN(C(C)C)CC2)ccc1Nc1nc(Nc2cccc(F)c2C(=O)O)c2cc[nH]c2n1 parameter_measured=inhibition value_observed=1.38%
smi=N#Cc1cccc(Nc2ncc(-c3ccccc3)o2)c1 parameter_measured=inhibition value_observed=-0.44%
smi=O=C(O[C@H]1CN[C@H](C#Cc2cc3ncnc(Nc4ccc(OCc5cccc(F)c5)c(Cl)c4)c3s2)C1)N1CCOCC1 parameter_measured=inhibition value_observed=0.97%
smi=CN1CCC(n2cnc(-c3ccc(F)cc3)c2-c2ccnc(NCCO)n2)CC1 parameter_measured=inhibition value_observed=1.14%

* * *

- system: Serine/threonine-protein kinase 4 (Homo sapiens) (UniProt Q13043);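 note: mean inhibition of MST1, part of the GSK PKIS dataset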
- Sequence (Q13043 whole entry): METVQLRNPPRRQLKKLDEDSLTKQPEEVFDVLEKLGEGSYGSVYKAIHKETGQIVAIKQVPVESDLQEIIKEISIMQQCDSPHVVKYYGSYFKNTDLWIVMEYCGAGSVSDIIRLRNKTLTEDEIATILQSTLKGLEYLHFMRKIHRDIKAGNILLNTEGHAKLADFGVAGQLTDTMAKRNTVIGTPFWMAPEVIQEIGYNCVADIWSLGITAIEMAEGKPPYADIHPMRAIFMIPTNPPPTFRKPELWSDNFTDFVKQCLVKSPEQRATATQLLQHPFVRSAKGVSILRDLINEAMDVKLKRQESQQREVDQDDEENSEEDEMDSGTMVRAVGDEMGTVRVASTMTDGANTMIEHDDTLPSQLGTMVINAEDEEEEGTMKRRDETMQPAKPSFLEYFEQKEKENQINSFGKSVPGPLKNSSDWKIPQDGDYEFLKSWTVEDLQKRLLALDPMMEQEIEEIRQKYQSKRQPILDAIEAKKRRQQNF
- assay-setup: at 1 µM
Assign class by inhibition: not lower than 8% means true; lower than 8% means false.

smi=CCN1CCC(C(=O)Nc2n[nH]c3nnc(-c4cccc(F)c4F)cc23)CC1 system="Serine/threonine-protein kinase 4 (Homo sapiens) (UniProt Q13043)" category=false
smi=CS(=O)(=O)CCNCc1ccc(-c2ccc3ncnc(Nc4ccc(OCc5ccccc5)cc4)c3c2)o1 system="Serine/threonine-protein kinase 4 (Homo sapiens) (UniProt Q13043)" category=false
smi=CN1CCC(n2cnc(-c3ccc(F)cc3)c2-c2ccnc(NCCO)n2)CC1 system="Serine/threonine-protein kinase 4 (Homo sapiens) (UniProt Q13043)" category=true
smi=Fc1cccc(COc2ccc(Nc3ncncc3C#Cc3ccccc3)cc2Cl)c1 system="Serine/threonine-protein kinase 4 (Homo sapiens) (UniProt Q13043)" category=true
smi=COc1cccc(Nc2nccc(-c3cnn4ncccc34)n2)c1 system="Serine/threonine-protein kinase 4 (Homo sapiens) (UniProt Q13043)" category=true
smi=CNC(=O)c1sc(-n2cnc3cc(OC)c(OC)cc32)cc1OCc1ccccc1C(F)(F)F system="Serine/threonine-protein kinase 4 (Homo sapiens) (UniProt Q13043)" category=false
smi=NC(=O)c1ccc2c(-c3ccnc(NCCCO)n3)c(-c3ccc(F)cc3)nn2c1 system="Serine/threonine-protein kinase 4 (Homo sapiens) (UniProt Q13043)" category=false
smi=Cc1nnc(-c2cccc(-c3ccc(C(=O)NCC4CC4)cc3)c2)o1 system="Serine/threonine-protein kinase 4 (Homo sapiens) (UniProt Q13043)" category=true
smi=CCS(=O)(=O)c1ccc(OC)c(Nc2ncc(-c3cccc(C(C)=O)c3)o2)c1 system="Serine/threonine-protein kinase 4 (Homo sapiens) (UniProt Q13043)" category=true
smi=Cn1c(-c2nonc2N)nc2cnccc21 system="Serine/threonine-protein kinase 4 (Homo sapiens) (UniProt Q13043)" category=false
smi=CCS(=O)(=O)c1ccc(OC)c(Nc2ncc(-c3cccc(F)c3)o2)c1 system="Serine/threonine-protein kinase 4 (Homo sapiens) (UniProt Q13043)" category=true
